This collection of values is drawn from patent US11596639B2.

Listing of entries alongside the reported Ki.
Target: Mcl-1 (Homo sapiens (Human))
Sequence (Q07820 172-327): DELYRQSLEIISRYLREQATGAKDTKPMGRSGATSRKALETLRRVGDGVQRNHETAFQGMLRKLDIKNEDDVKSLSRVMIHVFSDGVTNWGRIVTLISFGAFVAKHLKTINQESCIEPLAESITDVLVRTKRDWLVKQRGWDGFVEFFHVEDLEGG
Experiment: Fluorescence polarization anisotropy (FPA) competition assay, FITC-Bak or FITC-Bim BH3 peptide
Format: binding
Details: read-out: Ki for Inhibition of Mcl-1 by FPA assay

Sample records with Ki:
Cc1cc(OCCCc2c3n(c4c(-c5c(C)nn(C)c5C)c(Cl)ccc24)[C@H](C)CN(c2c(C)n(C)c4ccc(C(=O)O)cc24)C3=O)cc(C)c1Cl :: < 1 nM
CCn1cc2cc(C(=O)O)cc(N3CCCn4c(c(CCCOc5cc(C)c(Cl)c(C)c5)c5ccc(Cl)c(-c6c(C)nn(C)c6C)c54)C3=O)c2n1 :: < 1 nM

Please look at the following molecule next.
Sure, the documented Ki for Cc1cc(OCCCc2c3n(c4c(-c5c(C)nn(C)c5C)c(Cl)ccc24)[C@H](C)CN(c2cc(C(=O)O)c4cn(CCN5CCOCC5)nc4c2)C3=O)cc(C)c1Cl is < 1 nM

* * *

Molecular target: Mcl-1 (Homo sapiens (Human))
Assay: TR-FRET binding assay, FITC-Bak peptide and MBP-tagged Mcl-1
Settings: read-out: Ki for Inhibition of Mcl-1 by TR-FRET assay
Note to self: use 1 only for Ki readings below 0.5 nM; a reading exactly at 0.5 nM still gets 0.

Past entries and their recorded results:
Cc1cc(N2C[C@@H](C)n3c(c(CCCOc4cc(C)c(Cl)c(C)c4)c4ccc(Cl)c(-c5c(C)nn(C)c5C)c43)C2=O)c2c(c1)cc(C(=O)O)n2Cc1cc(C2=NCCO2)ccn1 :: 1
Cc1cc(OCCCc2c3n(c4c(-c5c(C)nn(C)c5C)c(Cl)ccc24)[C@H](C)CN(c2cc(NC(=O)CN(C)C)cc4c(C(=O)O)cn(C)c24)C3=O)cc(C)c1Cl :: 1
Cc1cc(OCCCc2c3n(c4c(-c5c(C)nn(C)c5C)c(Cl)ccc24)[C@H](C)CN(c2cn(C)c4ccc(-n5ncnn5)cc24)C3=O)cc(C)c1Cl :: 0
Cc1cc(OCCCc2c3n(c4c(-c5c(C)nc(CN6CCN(C)C(=O)C6)nc5C)c(Cl)ccc24)[C@H](C)CN(c2cn(C)c4ccc(-c5ncn(C)n5)cc24)C3=O)cc(C)c1Cl :: 0

INPUT: Threshold test, Ki < 0.5 nM: Cc1cccc(Cn2cc(C(=O)O)c3cccc(N4C[C@@H](C)n5c(c(CCCOc6cc(C)c(Cl)c(C)c6)c6ccc(Cl)c(-c7c(C)nn(C)c7C)c65)C4=O)c32)n1 (single isomer, unassigned) [Example 494]
OUTPUT: 1

* * *

Tested on: H929 human cancer cell lines
Assay: Cellular viability / proliferation (Cell TiterGlo, 72 h)
Assay type: cell-based
Settings: Homo sapiens, NCI-H929, 72 h, read-out: GI50 on cellular proliferation of H929 human cancer cell lines, H929 cells, 72 h, Cell TiterGlo, 10% FBS
Listing of entries alongside the reported GI50.
Express it in nM; write the number only.

Cc1cc(OCCCc2c3n(c4c(-c5c(C)nn(C)c5C)c(Cl)ccc24)[C@H](C)CN(c2cc(COCc4cscn4)cc4cc(C(=O)O)n(C)c24)C3=O)cc(C)c1Cl :: 430

Sure, the documented GI50 for Cc1cc(OCCCc2c3n(c4c(-c5c(C)nn(C)c5C)c(Cl)ccc24)[C@H](C)CN(c2cccc4cc(C(=O)O)n(Cc5ccccc5)c24)C3=O)cc(C)c1Cl is 420

Sure, the documented GI50 for Cc1cc(OCCCc2c3n(c4c(-c5c(C)n[nH]c5C)c(Cl)ccc24)CCCN(c2cc(C(=O)O)c4ccn(C)c4c2)C3=O)cc(C)c1Cl is 3000

Sure, the documented GI50 for Cc1cc(OCCCc2c3n(c4c(-c5c(C)nn(C)c5C)c(Cl)ccc24)[C@H](C)CN(c2ccc4oc(C(=O)O)cc4c2)C3=O)cc(C)c1Cl is 3400

Sure, the documented GI50 for Cc1cc(OCCCc2c3n(c4c(-c5c(C)nn(C)c5C)c(Cl)ccc24)CCCN(c2ccc4c(C(=O)O)cn(C)c4c2)C3=O)cc(C)c1Cl is 2900
